Experiment: Stability of compound in simulated intestinal fluid assessed as compound remaining at 2 mg/ml measured after 24 hrs by HPLC analysis
Type: ADME
Conditions: read-out: Stability
measurement-kind: remaining at 24 h, 2 mg/ml (%)
Respond numerically; units are % and should not be typed.

Just so you know, measured remaining at 24 h, 2 mg/ml for N#Cc1ccccc1C1Sc2ccccc2NC2=C1C(=O)c1ccccc12 (stereo unspecified) came out at 85

====

What viability at 20 h, 256 ug/ml was measured for each of the following?
Assay: Cytotoxicity against HEK293 cells assessed as cell survival at 256 ug/ml incubated for 20 hrs by XTT assay relative to control
Type: toxicity, cell-based
Details: human, at 256 µg/mL, read-out: Survival

Just so you know, measured viability at 20 h, 256 ug/ml for COc1ccccc1C1Sc2ccccc2NC2=C1C(=O)c1ccccc12 (stereo not drawn) came out at ≥ 75%

Just so you know, measured viability at 20 h, 256 ug/ml for N#Cc1ccccc1C1Sc2ccccc2NC2=C1C(=O)c1ccccc12 (stereo not drawn) came out at ≥ 75%

Just so you know, measured viability at 20 h, 256 ug/ml for Cc1cccc(C2Sc3ccccc3NC3=C2C(=O)c2ccccc23)c1F (stereo not drawn) came out at ≥ 75%

This collection of values is drawn from ChEMBL document CHEMBL5380782.
